Value source: patent US20260263614A1

Would you mind telling me the reported Kd of each entry?
Biological target: T1, huCDCP1(F30-T667 Q525)-8×His_T3 (human, UniProt Q9H5V8 30-667)
T1 construct: The construct name gives the limits F30-T667 and Q525; also called recombinant CDCP1 ECD; CDCP1 ECD
T1 sequence (Q9H5V8 other isoform, or with tags, fused parts or gaps): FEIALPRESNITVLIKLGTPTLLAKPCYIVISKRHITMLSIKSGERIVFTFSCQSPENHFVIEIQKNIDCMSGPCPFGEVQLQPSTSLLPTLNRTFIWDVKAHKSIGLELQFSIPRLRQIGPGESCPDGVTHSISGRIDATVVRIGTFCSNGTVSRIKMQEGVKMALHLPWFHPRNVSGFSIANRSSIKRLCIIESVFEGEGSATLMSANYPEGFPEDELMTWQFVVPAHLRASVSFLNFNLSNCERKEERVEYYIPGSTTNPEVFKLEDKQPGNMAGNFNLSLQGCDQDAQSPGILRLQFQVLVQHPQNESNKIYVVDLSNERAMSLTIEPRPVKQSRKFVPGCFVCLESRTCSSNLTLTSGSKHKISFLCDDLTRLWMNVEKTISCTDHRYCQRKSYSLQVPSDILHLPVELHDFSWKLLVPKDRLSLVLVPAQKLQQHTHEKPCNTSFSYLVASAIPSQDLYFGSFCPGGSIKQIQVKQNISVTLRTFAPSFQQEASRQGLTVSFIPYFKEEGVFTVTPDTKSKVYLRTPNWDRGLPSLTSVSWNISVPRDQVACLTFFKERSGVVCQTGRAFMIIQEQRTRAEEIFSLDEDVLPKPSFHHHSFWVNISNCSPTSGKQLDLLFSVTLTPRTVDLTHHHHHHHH
Experiment: SPR, huCDCP1(F30-T667 Q525)-8×His_T3 as analyte; mAb lot T14
Numbers only, in nM.

# Binder, Kd / nM
measured = [
    ("ADC4 (CDCP1 mAb conjugated to compound 30, DAR of 4) (antibody, IgG1, V domains shown, compound 30 (Mal-amido-PEG8-Val-Ala-exatecan) conjugated stochastically to reduced cysteines of the IgG1, average DAR 4; sites not stated) VH: EVQLLESGGGLVQPGGSLRLSCAASGFTFSNYAMNWVRQAPGKGLEWVSAISGGGGSTYYADSVKGRFTISRDNSKNTLYLQMNSLRAEDTAVYYCAKESITMVRGVMDYYGMDVWGQGTTVTVSS VL: DIQLTQSPSFLSASVGDRVTITCRASQGISSYLAWYQQKPGKAPKLLIYAASTLQGGVPSRFSGSGSGTEFTLTISSLQPEDFATYYCQHLNRFPRTFGQGTKVEIK", 0.604),
]

// for each binder below, give its Kd
1. ADC3 (CDCP1 mAb conjugated to compound 30, DAR of 8) (antibody, IgG1, V domains shown, compound 30 (Mal-amido-PEG8-Val-Ala-exatecan) conjugated stochastically to reduced cysteines of the IgG1, average DAR 7.3 (called DAR of 8); sites not stated, also called CDCP1-targeted exatecan conjugate) VH: EVQLLESGGGLVQPGGSLRLSCAASGFTFSNYAMNWVRQAPGKGLEWVSAISGGGGSTYYADSVKGRFTISRDNSKNTLYLQMNSLRAEDTAVYYCAKESITMVRGVMDYYGMDVWGQGTTVTVSS VL: DIQLTQSPSFLSASVGDRVTITCRASQGISSYLAWYQQKPGKAPKLLIYAASTLQGGVPSRFSGSGSGTEFTLTISSLQPEDFATYYCQHLNRFPRTFGQGTKVEIK
2. ADC2 (CDCP1 mAb conjugated to compound 20, DAR of 4) (antibody, IgG1, V domains shown, compound 20 (maleimide-Val-Ala-PDD linker-payload) conjugated stochastically to reduced cysteines of the IgG1, average DAR 4.2; sites not stated) VH: EVQLLESGGGLVQPGGSLRLSCAASGFTFSNYAMNWVRQAPGKGLEWVSAISGGGGSTYYADSVKGRFTISRDNSKNTLYLQMNSLRAEDTAVYYCAKESITMVRGVMDYYGMDVWGQGTTVTVSS VL: DIQLTQSPSFLSASVGDRVTITCRASQGISSYLAWYQQKPGKAPKLLIYAASTLQGGVPSRFSGSGSGTEFTLTISSLQPEDFATYYCQHLNRFPRTFGQGTKVEIK
3. CDCP1-vcMMAE (DAR of 4) (antibody, V domains shown, vc-MMAE (Val-Cit linker, monomethyl auristatin E) conjugated to the antibody, DAR of 4; sites not stated, also called CDCP1-MMAE) VH: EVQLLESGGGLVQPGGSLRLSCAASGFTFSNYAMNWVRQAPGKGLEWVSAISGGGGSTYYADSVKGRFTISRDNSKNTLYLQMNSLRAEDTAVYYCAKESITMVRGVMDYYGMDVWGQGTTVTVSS VL: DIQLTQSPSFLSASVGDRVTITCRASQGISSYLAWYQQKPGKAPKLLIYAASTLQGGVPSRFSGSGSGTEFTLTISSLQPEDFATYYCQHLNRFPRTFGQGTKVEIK

Response given:
1. 0.57
2. 0.635
3. 0.604
